- measurement notes: Iron affinity, stepwise association constant log K1
- Assay type: physicochemical
- measurement parameters: (c) interpolated from correlation between Zn2+ and Fe2+ data
reported metric: Iron Affinity, log K1 Fe2+, pH = 7.4
Answer field: number only, no words.

compound="O=c1cc(CO)occ1O [kojic acid]" numeric_value=3.7
compound=CC(C)c1cccc(O)c(=O)c1 numeric_value=4.9
compound="Cc1c(O)c(=O)ccn1C [3-Hydroxy-1,2-dimethyl-4(1H)-pyridone]" numeric_value=3.9
compound="Oc1cccc2cccnc12 [8-hydroxyquinoline]" numeric_value=4.9

// moving on: another record for Iron Affinity, log K1 Fe2+, pH = 7.4
In: Recorded Iron Affinity, log K1 Fe2+, pH = 7.4 of Cc1ccc2ccc3ccc(C)nc3c2n1 [2,9-dimethyl-1,10-phenanthroline] , please.
Out: 3.3

* * *

- measurement notes: Iron affinity, stepwise association constant log K1
- Type: physicochemical
- measurement parameters: (c) interpolated from correlation between Zn2+ and Fe2+ data
Param threshold (5) applies to Iron Affinity, log K1 Fe2+, pH = 7.4; output label 1 when value >= threshold, label 0 when value < threshold.

Previously resolved entries follow.
molecule="O=C(O)CN(CCO)CCO [N,N-Bis(2-hydroxyethyl)glycine]" class_name="label 0"
molecule="CCC(NCCNC(CC)C(=O)O)C(=O)O (stereo not shown)" class_name="label 1"
molecule="[O-]n1ccccc1=S.[O-]n1ccccc1=S.[Zn+2] [Zinc Pyrithione, zinc salt of 1-hydroxy-2-pyridinethione]" class_name="label 0"
molecule=NCCC(=O)N[C@@H](Cc1c[nH]cn1)C(=O)O class_name="label 0"

In: Can Cc1occc(=O)c1O be said to have Iron Affinity, log K1 Fe2+, pH = 7.4 at or above 5?
Out: label 1

In: Again, but for Oc1ccc2ccccc2c1N=Nc1nccs1
Out: label 1
